# logD per record follows
- run.description: Log D of compound at pH 7.4
- condition.label: buffer
Answer as a number with no unit attached.

query.smiles | logD
CCCn1c(=O)ccc2c(-c3cnc(-c4ccc(C(=O)O)nc4)s3)n[nH]c21 | 0.9

Input line: # input compound: `CCCc1cccc2c(-c3cnc(-c4ccc(C(=O)O)nc4)s3)n[nH]c12` ; wanted: its logD
Output line: 1.7

* * *

- System: Enterococcus faecalis
- run.description: Antibacterial activity against Enterococcus faecalis for 18 to 20 hrs by broth microdilution method
- Type: functional
quantity.kind: log10(MIC) (log10 of the value in µg/mL)
Hi team, quick reminder: these entries are log10 of MIC (µg/mL).

Observe how each entry below is paired with its result.
query.smiles | readout.number
CCOc1cccc2c(-c3cnc(-c4ccc(C(=O)O)c(F)c4)s3)n[nH]c12 | 0.00
CCCc1c(O)ccc2c(-c3cnc(-c4ccc(C(=O)O)c(F)c4)s3)n[nH]c12 | -1.70
CCCc1c(O)ccc2c(-c3cnc(-c4cnc(C(=O)O)cc4C)s3)n[nH]c12 | -1.22
CCCc1cccc2c(-c3cnc(-c4ccc(C(=O)O)nc4)s3)n[nH]c12 | -1.52

Input line: Entry `CCCc1cccc2c(-c3cnc(-c4cnc(C(=O)O)c(F)c4)s3)n[nH]c12` , system Enterococcus faecalis: what log10(MIC) was measured?
Output line: -0.60

Input line: Entry `CCCOc1nccc2c(-c3cnc(-c4cnc(C(=O)O)cc4C)s3)n[nH]c12` , system Enterococcus faecalis: what log10(MIC) was measured?
Output line: 0.60

Input line: Entry `CCCOc1nccc2c(-c3cnc(-c4ccc(C(=O)O)nc4)s3)n[nH]c12` , system Enterococcus faecalis: what log10(MIC) was measured?
Output line: 0.30

* * *

- run.description: Volume of distribution at steady state in mouse at 2 mg/kg, iv by LC-MS/MS analysis
- Format: ADME, organism-based
- condition.label: in vivo, read-out: Vdss
# Vd per record follows
Only the number, expressed in L/kg, is required.

Observe how each entry below is paired with its result.
query.smiles | Vd [L/kg]
CCCc1c(OC)ccc2c(-c3cnc(-c4ccc(C(=O)O)c(F)c4)s3)n[nH]c12 | 0.32
CCCc1cccc2c(-c3cnc(-c4ccc(C(=O)O)nc4)s3)n[nH]c12 | 3.47

# input for lookup
Input line: # input compound: `CCCc1cccc2c(-c3cnc(-c4ccc(C(=O)O)c(F)c4)s3)n[nH]c12` ; wanted: its Vd
Output line: 1.7

* * *

- Test system: Streptococcus pneumoniae
- run.description: Antibacterial activity against Streptococcus pneumoniae 402 infected in sc dosed mouse assessed as reduction in 2 log CFU in lung compound administered as BID for 1 day measured 24 hrs after last dose
- Format: functional
# ED per record follows
Only the number, expressed in mg/kg, is required.

query.smiles | target | readout.units | readout.number
CCCc1c(OC)ccc2c(-c3cnc(-c4ccc(C(=O)O)c(F)c4)s3)n[nH]c12 | Streptococcus pneumoniae | mg/kg | 60.6
CCCc1cccc2c(-c3cnc(-c4ccc(C(=O)O)c(F)c4)s3)n[nH]c12 | Streptococcus pneumoniae | mg/kg | 63

# input for lookup
Input line: # input molecule: `COc1c(N2C[C@@H]3CCCN[C@@H]3C2)c(F)cc2c(=O)c(C(=O)O)cn(C3CC3)c12` ; wanted: its ED
Output line: 28.6
